# Study Target: Nuclear receptor coactivator 1 (Homo sapiens) (UniProt Q15788)
# Sequence (Q15788 whole entry, looked up): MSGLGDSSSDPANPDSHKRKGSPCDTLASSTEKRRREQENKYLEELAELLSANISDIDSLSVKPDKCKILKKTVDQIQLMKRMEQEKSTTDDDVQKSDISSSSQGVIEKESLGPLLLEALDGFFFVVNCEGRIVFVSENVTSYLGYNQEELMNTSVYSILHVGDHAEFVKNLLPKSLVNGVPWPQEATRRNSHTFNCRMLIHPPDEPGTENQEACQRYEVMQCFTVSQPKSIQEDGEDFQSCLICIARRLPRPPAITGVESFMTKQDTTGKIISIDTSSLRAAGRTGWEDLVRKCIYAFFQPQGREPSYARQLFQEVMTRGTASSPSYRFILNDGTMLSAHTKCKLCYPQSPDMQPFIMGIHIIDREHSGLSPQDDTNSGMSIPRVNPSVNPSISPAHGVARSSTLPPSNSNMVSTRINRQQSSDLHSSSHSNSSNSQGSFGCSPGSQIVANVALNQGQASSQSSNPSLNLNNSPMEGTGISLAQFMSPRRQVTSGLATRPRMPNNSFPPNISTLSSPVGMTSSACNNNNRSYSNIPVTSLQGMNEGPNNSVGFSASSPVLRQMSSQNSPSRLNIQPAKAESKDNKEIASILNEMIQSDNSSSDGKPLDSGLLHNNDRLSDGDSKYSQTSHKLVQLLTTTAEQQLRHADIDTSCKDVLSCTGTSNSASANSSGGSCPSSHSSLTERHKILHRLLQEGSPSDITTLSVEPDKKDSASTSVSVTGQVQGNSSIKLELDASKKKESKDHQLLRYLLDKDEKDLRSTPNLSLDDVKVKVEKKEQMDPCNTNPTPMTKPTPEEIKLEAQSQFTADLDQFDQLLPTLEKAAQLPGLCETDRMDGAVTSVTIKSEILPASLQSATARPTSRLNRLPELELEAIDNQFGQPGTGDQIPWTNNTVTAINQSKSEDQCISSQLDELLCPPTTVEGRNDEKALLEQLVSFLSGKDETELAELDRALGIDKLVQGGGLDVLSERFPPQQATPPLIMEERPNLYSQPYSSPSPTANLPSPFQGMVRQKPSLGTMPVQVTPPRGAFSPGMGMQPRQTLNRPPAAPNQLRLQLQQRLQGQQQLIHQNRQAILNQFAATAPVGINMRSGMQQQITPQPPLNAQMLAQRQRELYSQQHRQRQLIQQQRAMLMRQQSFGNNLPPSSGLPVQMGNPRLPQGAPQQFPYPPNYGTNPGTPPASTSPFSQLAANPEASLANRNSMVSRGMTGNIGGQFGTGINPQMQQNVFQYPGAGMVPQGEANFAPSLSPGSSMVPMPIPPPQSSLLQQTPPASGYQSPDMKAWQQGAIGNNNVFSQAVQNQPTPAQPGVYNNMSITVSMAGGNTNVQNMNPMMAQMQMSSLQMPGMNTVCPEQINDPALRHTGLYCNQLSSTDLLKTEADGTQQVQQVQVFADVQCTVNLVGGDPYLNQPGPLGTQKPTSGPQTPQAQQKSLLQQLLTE
# Measurement Description: SRC1 coactivator transcriptional activity inhibitors, dose response, counter-screen for SRC3 inhibitor project, cell-based, luminescence (AID 602168)
# Run Parameters: Cell-based SRC1 luciferase reporter
The source made the active and inactive calls. How the calls were made is not given here.
Outcome codes: active, inactive

>>> print(df.to_string())
                                    molecule  class_label
 0  COc1cccc(/C=N/Nc2ccc([N+](=O)[O-])cn2)c1O     inactive
 1     Cc1ccc(C(=O)O/N=C(\N)c2ccccn2)c(Cl)c1     inactive
 2        Cc1c(Cl)cccc1NC(=O)Nc1ccccc1C(N)=O     inactive
 3  CCCC(=O)NC(c1ccc(Cl)cc1)c1ccc2cccnc2c1O (stereo unspecified)       active
 4  CN(Cc1cnc2nc(N)nc(N)c2n1)c1ccc(C(=O)NC(CCC(=O)O)C(=O)O)cc1 (stereo unspecified)     inactive
 5  CN(Cc1cnc2nc(N)nc(N)c2n1)c1ccc(C(=O)NC(CCC(=O)O)C(=O)O)c2ccccc12 (stereo unspecified)     inactive
 6            CC(=O)N1CCN(c2ncnc3ccccc23)CC1     inactive
 7  CN(C)S(=O)(=O)c1ccc(N2CCN(S(=O)(=O)c3ccc(F)cc3)CC2)c(Cl)c1     inactive
 8  Cc1ccc(/C=C2\SC(=S)N(CCCC(=O)NC3CCCC3)C2=O)cc1       active
 9       CCOC(=O)CC(=O)CSc1nccc(-c2cccnc2)n1     inactive
10    CNC(=O)c1cccn(Cc2ccc(C(F)(F)F)cc2)c1=O     inactive
11  CN1C(=O)C2(C(C#N)=C(N)N(c3cc(Cl)cc(Cl)c3)C3=C2C(=O)CCC3)c2ccccc21 (stereo unspecified)     inactive
12               O=C(CCl)N(c1ccccc1)C1CCCCC1     inactive
13  CO[C@@]12[C@@H]3N[C@@H]3CN1C1=C(C(=O)C(N)=C(C)C1=O)[C@@H]2COC(N)=O     inactive
14  Cc1c(/C(O)=C2/C(=O)C(=O)N(Cc3cccnc3)C2c2ccccn2)cnn1-c1ccccc1 (stereo unspecified)     inactive
15  O=c1[nH]c2ccccc2n1C1CCN(C(c2ccccc2)c2nnnn2-c2ccc3c(c2)OCCO3)CC1 (stereo unspecified)     inactive
16  CN(C)c1ccc(CNC(=O)CCNS(=O)(=O)c2cc(Br)cnc2N)cc1     inactive
17  CC(C)(C)n1ncc2c(=O)n(CC(=O)OCc3ccccc3)cnc21     inactive
18  CCn1nc(/C=C/c2ccccc2)nc2c(=O)n(C)c(=O)nc1-2     inactive
19       CC(C)N(c1ccccc1)c1ccc(NC(=O)CCl)cc1     inactive
20  O=c1[nH]c2ccccc2n1C1CCN(C(c2cc3ccccc3o2)c2nnnn2Cc2ccccc2)CC1 (stereo unspecified)     inactive

Hey, just so you know, these numbers are from PubChem BioAssay AID602168.
